Biological target: UniProt O75173
Sequence (O75173 213-837): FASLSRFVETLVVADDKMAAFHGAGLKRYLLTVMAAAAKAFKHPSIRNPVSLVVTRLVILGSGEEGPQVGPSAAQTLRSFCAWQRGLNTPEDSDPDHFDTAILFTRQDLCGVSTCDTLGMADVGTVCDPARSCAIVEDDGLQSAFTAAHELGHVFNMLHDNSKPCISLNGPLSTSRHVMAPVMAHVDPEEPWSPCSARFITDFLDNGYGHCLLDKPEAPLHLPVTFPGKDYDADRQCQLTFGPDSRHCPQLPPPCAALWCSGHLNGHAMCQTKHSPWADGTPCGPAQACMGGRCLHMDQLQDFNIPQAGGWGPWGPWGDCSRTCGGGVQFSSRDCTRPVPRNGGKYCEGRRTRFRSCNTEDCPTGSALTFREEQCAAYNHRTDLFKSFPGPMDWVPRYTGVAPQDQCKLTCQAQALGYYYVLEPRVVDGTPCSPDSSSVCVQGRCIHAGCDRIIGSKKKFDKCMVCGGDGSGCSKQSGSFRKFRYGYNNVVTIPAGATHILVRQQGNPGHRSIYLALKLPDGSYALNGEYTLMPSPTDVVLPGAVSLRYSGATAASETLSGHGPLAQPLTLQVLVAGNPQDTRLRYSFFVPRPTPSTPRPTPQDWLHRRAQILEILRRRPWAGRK
Assay: Agg-1 FRET assay
Format: biochemical
Conditions: @ 22000 nM; read-out: Agg1 %
measurement type: inhibition at 22 µM (%)

Cc1ccc(Oc2cccc(C(NC(=O)COc3ccccc3)c3cc(Cl)c4cccnc4c3O)c2)cc1 (centres unmarked)
52
COc1cccc(C(NC(=O)COc2ccccc2)c2cc(Cl)c3cccnc3c2O)c1 (centres unmarked)
44
O=C(COc1ccccc1)NC(c1cccc([N+](=O)[O-])c1)c1cc(Cl)c2cccnc2c1O (centres unmarked)
53
COc1ccc(C(NC(=O)COc2ccccc2)c2cc(Cl)c3cccnc3c2O)c2ccccc12 (centres unmarked)
62
CCOC(=O)Cc1cccc(C(NC(=O)COc2ccccc2)c2cc(Cl)c3cccnc3c2O)c1 (centres unmarked)
41
O=C(COc1ccccc1)NC(c1cc(Cl)c2cccnc2c1O)c1cccc2cccnc12 (centres unmarked)
55
O=C(COc1ccccc1)NC(c1cccc(Oc2ccc(Cl)cc2)c1)c1cc(Cl)c2cccnc2c1O (centres unmarked)
51
C=CCOc1ccc(C(NC(=O)COc2ccccc2)c2cc(Cl)c3cccnc3c2O)cc1 (centres unmarked)
52

###

Biological target: Agg-1 (Homo sapiens, UniProt O75173)
Sequence (O75173 213-837): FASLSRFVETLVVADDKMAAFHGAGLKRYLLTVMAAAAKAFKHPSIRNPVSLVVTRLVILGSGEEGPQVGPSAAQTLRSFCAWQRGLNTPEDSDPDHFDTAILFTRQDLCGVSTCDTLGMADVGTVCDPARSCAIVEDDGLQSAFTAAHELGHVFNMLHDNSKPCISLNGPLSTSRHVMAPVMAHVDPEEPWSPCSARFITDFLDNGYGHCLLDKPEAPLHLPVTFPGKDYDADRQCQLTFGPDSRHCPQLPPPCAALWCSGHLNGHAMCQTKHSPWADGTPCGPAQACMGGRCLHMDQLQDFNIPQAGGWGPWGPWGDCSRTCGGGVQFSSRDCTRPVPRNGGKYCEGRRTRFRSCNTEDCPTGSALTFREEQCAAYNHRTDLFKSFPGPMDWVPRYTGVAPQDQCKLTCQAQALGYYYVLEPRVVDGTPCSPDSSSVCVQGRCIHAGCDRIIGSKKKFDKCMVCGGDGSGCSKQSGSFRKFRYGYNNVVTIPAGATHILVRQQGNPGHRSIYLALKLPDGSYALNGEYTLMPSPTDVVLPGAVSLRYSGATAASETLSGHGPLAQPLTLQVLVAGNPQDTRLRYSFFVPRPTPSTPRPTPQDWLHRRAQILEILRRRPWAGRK
Experiment: Agg-1 FRET assay
Assay type: biochemical
Details: read-out: Agg1 IC50
measurement type: IC50

Request: Any idea what IC50 was measured for O=C(COc1ccccc1)NC(c1cc2n(n1)CCC2)c1cc(Cl)c2cccnc2c1O (stereo not drawn) ?
Result: > 20 µM

Request: Try this compound too: O=C(CCl)Nc1cccc(C(NC(=O)COc2ccccc2)c2cc(Cl)c3cccnc3c2O)c1 (stereo not drawn)
Result: ~20 µM

Request: Try this compound too: Cc1ccc(C(NC(=O)COc2ccccc2)c2cc(Cl)c3cccnc3c2O)cc1C (stereo not drawn)
Result: 66 to 200 µM

Request: Try this compound too: CC(=O)Nc1cccc(C(NC(=O)COc2ccccc2)c2cc(Cl)c3cccnc3c2O)c1 (stereo not drawn)
Result: > 20 µM

Request: Try this compound too: O=C(COc1ccccc1)NC(c1cc(Cl)c2cccnc2c1O)c1coc2ccccc2c1=O (stereo not drawn)
Result: ~11 µM

Request: Try this compound too: O=C(COc1ccccc1)NC(c1cccc(Oc2ccccc2)c1)c1cc(Cl)c2cccnc2c1O (stereo not drawn)
Result: > 67 µM

Request: Try this compound too: O=C(CN1CCC(c2ccccc2)CC1)NC(c1ccccc1)c1cc(Cl)c2cccnc2c1O (stereo not drawn)
Result: ~11 µM

Request: Try this compound too: O=C(COc1ccccc1)NC(c1ccccc1)c1cc(Cl)c2cccnc2c1O (stereo not drawn)
Result: > 22 µM

Request: Try this compound too: O=C(CNCc1cccc2ccccc12)NC(c1ccccc1)c1cc(Cl)c2cccnc2c1O (stereo not drawn)
Result: 17.5 µM

Request: Try this compound too: O=C(NC(c1ccccc1)c1cc(Cl)c2cccnc2c1O)OCc1ccccc1 (stereo not drawn)
Result: > 100 µM

Request: Try this compound too: O=C(COc1ccccc1)NC(c1ccccc1)c1cc([N+](=O)[O-])c2cccnc2c1O (stereo not drawn)
Result: 19.3 µM

Request: Try this compound too: O=C(CNCc1cccc2ccccc12)NC(c1ccccc1)c1cc(Br)c2cccnc2c1O (stereo not drawn)
Result: 7.4 to 20 µM

Request: Try this compound too: COc1ccc(C(NC(=O)COc2ccccc2)c2cc(Cl)c3cccnc3c2O)cc1OC (stereo not drawn)
Result: > 1.5 µM

Request: Try this compound too: O=C(COc1ccccc1)NC(c1ccc(OCc2ccccc2)cc1)c1cc(Cl)c2cccnc2c1O (stereo not drawn)
Result: > 67 µM

Request: Try this compound too: O=C(CNCc1ccccc1)NC(c1ccccc1)c1cc(Cl)c2cccnc2c1O (stereo not drawn)
Result: > 20 µM

Request: Try this compound too: O=C(COc1ccccc1)NC(c1ccoc1)c1cc(Cl)c2cccnc2c1O (stereo not drawn)
Result: > 22 µM

Request: Try this compound too: O=C(COc1ccccc1)NC(c1ccc(-c2ccncc2)cc1)c1cc(Cl)c2cccnc2c1O (stereo not drawn)
Result: 4.7 µM

Request: Try this compound too: O=C(COc1ccc(Br)cc1)NC(c1ccccc1Cl)c1cc(Cl)c2cccnc2c1O (stereo not drawn)
Result: 22 to 67 µM

###

Molecular target: recombinant human Aggrecanase-2 Agg2-Phe628 (Homo sapiens, UniProt Q9UNA0)
Sequence (Q9UNA0 262-628 limits assumed): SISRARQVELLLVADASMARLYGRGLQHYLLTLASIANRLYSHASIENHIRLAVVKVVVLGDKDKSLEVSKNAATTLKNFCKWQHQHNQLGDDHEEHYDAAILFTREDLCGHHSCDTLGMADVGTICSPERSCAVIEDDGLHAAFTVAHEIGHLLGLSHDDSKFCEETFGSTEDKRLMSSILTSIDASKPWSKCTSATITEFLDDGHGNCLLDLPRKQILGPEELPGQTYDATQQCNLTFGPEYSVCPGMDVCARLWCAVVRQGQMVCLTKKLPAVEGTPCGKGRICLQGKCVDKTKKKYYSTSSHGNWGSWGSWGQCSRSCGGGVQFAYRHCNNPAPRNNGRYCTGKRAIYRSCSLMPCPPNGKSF
Assay: Aggrecanase 2 in vitro enzyme assay (Agg-2 FRET, quenched fluorescent peptide substrate)
Format: biochemical
Parameters: purified recombinant human Aggrecanase-2 Agg2-Phe628 (MW=41,737); This is a truncated form of full-length human aggrecanase-2; made in house; host or cells: CHO cells
Settings: read-out: Agg-2 FRET Median IC50
Method: A continuous assay was used in which the substrate was a synthetic peptide containing a fluorescent group (o-aminobenzyl, Abz), which was quenched by energy transfer to a 2,4-dinitrophenyl group (Dnp). The buffer used in this assay was 50 mM HEPES, pH 7.5, 100 mM NaCl, 5 mM CaCl2, 0.1% CHAPS, 5% glycerol. […] The concentration of this substrate stock was spectrophotometrically determined using the extinction coefficient at 354 nm of 18,172 M^−1cm^−1. […]
pIC50: −log10 of the molar value.
measurement type: pIC50

CC(=O)Nc1cccc(C(NC(=O)COc2ccccc2)c2cc(Cl)c3cccnc3c2O)c1 (centres unmarked) [Example 204]
5.42
O=C(NC(c1ccc2c(c1)OCO2)c1cc(Cl)c2cccnc2c1O)OCc1ccccc1 (centres unmarked)
5.81
COc1ccc(OCC(=O)NC(c2ccccc2)c2cc(Cl)c3cccnc3c2O)cc1 (centres unmarked)
5.86
COc1cc(C(NC(=O)COc2ccccc2)c2cc(Cl)c3cccnc3c2O)ccc1O (centres unmarked)
5.14
Cc1ccsc1C(NC(=O)Cc1ccccc1)c1cc(Cl)c2cccnc2c1O (centres unmarked)
5.60
O=C(COc1ccccc1)NC(c1ccccc1)c1cc(-n2cccc2)c2cccnc2c1O (centres unmarked)
5.78
COc1ccc(OCC(=O)NC(c2ccccc2)c2ccc3cccnc3c2O)cc1 (centres unmarked)
5.48
Cc1ccccc1C(NC(=O)COc1ccccc1)c1cc(Br)c2cccnc2c1O (centres unmarked)
6.00

P = Cc1cc(NCC(=O)NC(c2ccccc2Cl)c2cc(Cl)c3cccnc3c2O)ccc1Cl (centres unmarked) [Example 19]
Q = C/C=C/C(NC(=O)COc1ccccc1)c1cc(Cl)c2cccnc2c1O (centres unmarked) [Example 187]
Request: Smaller pIC50 value, P vs Q ? // respond with label for picked entry
Result: Q
(Q: 5.60, P: 5.83)

1 = Cc1ccc(C(NC(=O)CNCc2ccccc2)c2cc(Cl)c3cccnc3c2O)cc1 (centres unmarked) [Example 60]
2 = O=C(COc1ccccc1)NC(c1ccc(F)c(Cl)c1)c1cc(Cl)c2cccnc2c1O (centres unmarked)
Request: Form field 'greater pIC50' accepts 1 or 2 ; which applies? // respond with label for picked entry
Result: 2
(2: 5.98, 1: 5.74)
